System: HOP-92
run_description: NCI tumour cell line growth inhibition, 48 h
The source made the active and inactive calls. Cut-off read from the data, not from the text of the source: active = GI50 up to about 1.1 µM and inactive = higher.
attribute_measured: GI50

{"columns": ["compound", "tested_on", "attribute_measured", "measured_result"],
 "data": [
  ["Cc1c2n(c(=O)[nH]c1=O)C1OC(CO)C(O2)C1N=[N+]=[N-] (configuration not stated)", "HOP-92", "GI50", "> 100 µM (inactive)"],
  ["N#Cc1c(-c2ccc(Cl)cc2)c2c([nH]c1=O)-c1cc([N+](=O)[O-])ccc1CCC2", "HOP-92", "GI50", "14.4 µM (inactive)"]
]}

What is its GI50 for HOP-92? Entry: C/C(=N\N=C(\N)SB(F)F)c1ccc2ccccc2c1
> 100 µM (inactive)

API: value(readout=GI50, system=HOP-92) for record CC(C)(C)OC(=O)NCC(c1c[nH]c2ccccc12)c1c[nH]c2ccccc12
13.1 µM (inactive)

State its GI50 on HOP-92: O=[N+]([O-])c1ccccc1S(=O)(=O)c1cc(Cl)cc2c1NCCC2
91.2 µM (inactive)

Entry O=C(Nc1ccc(Cl)cc1C(F)(F)F)C(=O)C1CCCS1(=O)=O (configuration not stated) , system HOP-92: what GI50 was measured?
> 10 µM (inactive)

Report GI50 for COc1cc(NS(C)(=O)=O)ccc1NCc1c[nH]c2ccc3ncccc3c12 tested on HOP-92.
33 µM (inactive)
